B1: Ventral anterior homeobox 1, residues 102 to 157; numbered along this chain, Q5SQQ9 (parent)
chain: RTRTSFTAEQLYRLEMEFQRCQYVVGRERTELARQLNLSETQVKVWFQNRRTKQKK

variants of: B1; assay: abundance fitness (aPCA) (normalised: wild type 0, dead -1); higher = more abundant; growth selection in yeast, the domain comes from the species named; conditions: Homo sapiens
For each record, write down the corresponding abundance fitness.
No unit in the answer, please; the number alone is enough.

# input Requested read-out: abundance fitness. Entry: L38R
# output -0.576

# input Also, Q35G please.
# output -0.182

# input Also, V43A please.
# output -0.679

# input Also, W46M please.
# output -0.919

# input Also, R20N please.
# output 0.251

# input Also, T2D please.
# output -0.034

# input Also, Q54C please.
# output -0.252

# input Also, M16W please.
# output -0.291

# input Also, E31R please.
# output -0.657

# input Also, V45R please.
# output -0.156

# input Also, L32G please.
# output -1.21

# input Also, T7D please.
# output -0.043

# input Also, V45Q please.
# output -0.061

# input Also, V45T please.
# output 0.126

# input Also, K53N please.
# output 0.199

# input Also, L11I please.
# output -0.059

# input Also, T41E please.
# output 0.106

# input Also, T2M please.
# output -0.128

# input Also, E17W please.
# output -0.359

# input Also, E9L please.
# output -0.439

# input Also, F47R please.
# output -0.873

# input Also, T4W please.
# output -0.095

# input Also, F47W please.
# output -0.651

# input Also, C21H please.
# output -0.215

# input Also, K55M please.
# output -0.288

# input Also, A8M please.
# output -0.104

# input Also, Q48C please.
# output -0.051

# input Also, V45L please.
# output 0.083

# input Also, N37F please.
# output -0.183

# input Also, C21E please.
# output -0.101

# input Also, V45S please.
# output 0.158

# input Also, G26A please.
# output -0.155

# input Also, T52N please.
# output -0.037

# input Also, V25M please.
# output -0.396

# input Also, E9D please.
# output -0.135

# input Also, F6T please.
# output -0.556

# input Also, A33D please.
# output -0.938

# input Also, T41M please.
# output 0.095

# input Also, Q54I please.
# output -0.191

# input Also, V24G please.
# output -0.436

# input Also, Q35A please.
# output 0.052

# input Also, K56I please.
# output 0.003

# input Also, R34Q please.
# output -0.361

# input Also, R27L please.
# output -0.049

# input Also, Q48R please.
# output -0.172

# input Also, V45D please.
# output 0.185

# input Also, Q35S please.
# output 0.037

# input Also, Y23K please.
# output 0.051

# input Also, T4S please.
# output -0.058

# input Also, E28F please.
# output -0.513

# input Also, N37M please.
# output -0.536

# input Also, S5Q please.
# output 0.028

# input Also, S39L please.
# output -0.591

# input Also, E40M please.
# output -0.852

# input Also, T7G please.
# output -0.311

# input Also, T52E please.
# output 0.139

# input Also, T7S please.
# output -0.158

# input Also, K56E please.
# output 0.12

# input Also, M16S please.
# output -0.027

# input Also, R3D please.
# output 0.326

# input Also, R3V please.
# output 0.096

# input Also, E15P please.
# output -1.07

# input Also, T52K please.
# output 0.091

# input Also, A33C please.
# output -0.295

# input Also, A33W please.
# output -0.483

# input Also, N37K please.
# output -0.092

# input Also, G26E please.
# output -0.249

# input Also, Q19C please.
# output -0.225

# input Also, Q19D please.
# output -0.161

# input Also, Q22H please.
# output -0.251

# input Also, T41L please.
# output 0.024

# input Also, R51W please.
# output -0.243

# input Also, R20C please.
# output -0.303

# input Also, T41D please.
# output 0.105

# input Also, N49S please.
# output -0.277

# input Also, T30E please.
# output 0.018

# input Also, Y23S please.
# output 0.03

# input Also, S39R please.
# output -0.417

# input Also, L14F please.
# output -0.789

# input Also, Q19G please.
# output -0.133
